Numbers sourced from patent US20180186814A1.

test system: E. cloacae SR36276; experiment: MIC by microbroth dilution (CLSI), strain No. 5; assay type: cell-based; details: E. cloacae SR36276, AmpC; highly AmpC-producing strain, ceftazidime-resistant, cefepime-sensitive; cation-adjusted Mueller-Hinton broth
Each entry below carries its reported minimum inhibitory concentration (MIC), Strain No. 5.
Readout: minimum inhibitory concentration (MIC), Strain No. 5 (µg/mL)

Compound	Meas Value
Nc1nc(/C(=N/OCCC(=O)O)C(=O)N[C@@H]2C(=O)N3[C@@H]2[S@@+]([O-])C[C@@H]2CC(=O)O[C@@]23C(=O)[O-])cs1.[Na+] [Compound I-061]	0.25
Nc1nc(/C(=N/OCS(=O)(=O)O)C(=O)N[C@@H]2C(=O)N3[C@@H]2[S@@+](O)C[C@@H]2CC(=O)O[C@@]23C(=O)O)cs1 [Compound I-047]	0.25
Nc1nc(/C(=N/OCC(=O)O)C(=O)N[C@@H]2C(=O)N3[C@@H]2[SH](O)C[C@@H]2CC(=O)O[C@@]23C(=O)O)c(F)s1 (some centres unmarked) [Compound I-036]	1
CC(=O)NCCO/N=C(\C(=O)N[C@@H]1C(=O)N2[C@@H]1[S@@+]([O-])C[C@@H]1CC(=O)O[C@@]12C(=O)O)c1csc(N)n1 [Compound I-054]	4
Nc1nc(/C(=N/OCC(=O)NO)C(=O)N[C@@H]2C(=O)N3[C@@H]2[S+](O)C[C@@H]2CC(=O)O[C@@]23C(=O)O)cs1 (some centres unmarked) [Compound I-049]	0.5

* * *

system: E. coli SR09616; assay: MIC by microbroth dilution (CLSI), strain No. 7; assay type: cell-based; conditions: Escherichia coli, SR09616, read-out: minimum inhibitory concentration (MIC), Strain No. 7
Each entry below carries its reported MIC.
Readout: MIC (µg/mL)

> print(dat)
                                   compound  readout  meas.value
1  Nc1nc(/C(=N/OC(CO)CO)C(=O)N[C@@H]2C(=O)N3[C@@H]2[S@@+]([O-])C[C@@H]2CC(=O)O[C@@]23C(=O)O)cs1 [Compound I-052]      MIC       0.063
2  Nc1nc(/C(=N/OC[C@H](O)CO)C(=O)N[C@@H]2C(=O)N3[C@@H]2[S@@+]([O-])C[C@@H]2CC(=O)O[C@@]23C(=O)O)cs1 [Compound I-050]      MIC           4
3  N#CCO/N=C(\C(=O)N[C@@H]1C(=O)N2[C@@H]1[S@@+]([O-])C[C@@H]1CC(=O)O[C@@]12C(=O)O)c1csc(N)n1 [Compound I-039]      MIC           1

* * *

Each entry below carries its reported minimum inhibitory concentration (MIC), Strain No. 6.
tested on: E. coli SR09613; experiment: MIC by microbroth dilution (CLSI), strain No. 6; assay type: cell-based; conditions: E. coli SR09613, CMY-2 type; plasmid AmpC-producing strain, ceftazidime-resistant, cefepime-sensitive; cation-adjusted Mueller-Hinton broth
Readout: minimum inhibitory concentration (MIC), Strain No. 6 (µg/mL)

> print(dat)
                                   compound  meas.value
1  Nc1nc(/C(=N/OCc2cc(O)no2)C(=O)N[C@@H]2C(=O)N3[C@@H]2[S@H](O)C[C@@H]2CC(=O)O[C@@]23C(=O)[O-])cs1.[Na+]           4
2  Nc1nc(/C(=N/OCC(=O)NO)C(=O)N[C@@H]2C(=O)N3[C@@H]2[S+](O)C[C@@H]2CC(=O)O[C@@]23C(=O)O)cs1 (stereo partly shown)       0.063
3  Nc1nc(/C(=N/OCS(=O)(=O)O)C(=O)N[C@@H]2C(=O)N3[C@@H]2[S@@+](O)C[C@@H]2CC(=O)O[C@@]23C(=O)O)cs1       0.063
4  CC(=O)NCCO/N=C(\C(=O)N[C@@H]1C(=O)N2[C@@H]1[S@@+]([O-])C[C@@H]1CC(=O)O[C@@]12C(=O)O)c1csc(N)n1         0.5
